# Test system: Plasmodium berghei
# test description: Screen against P. berghei liver stage (PbLuc), transformed with Luciferase, at 10uM
# Format: functional, HepG2
# condition parameters: tested at 10 uM
About 8,600 (12%) of roughly 69,000 compounds showed an effect of 50% or more. Many of the other results were omitted from the sample, so strong results are more common in it than they were.
Listing of entries alongside the reported INHIBITION.

compound	measurement target	units symbol	INHIBITION
COc1ccccc1C1(CNCc2cccc(C#N)c2)CCOCC1	Plasmodium berghei	%	20.9
Cc1noc(C)c1-c1nc(C2CCCN(CCC(N)=O)C2)ccc1CO (stereo unspecified)	Plasmodium berghei	%	-19
CCN1CCCC1CNC(=O)c1cc(COc2ccccc2F)[nH]n1 (stereo unspecified)	Plasmodium berghei	%	-11.2
O[C@@H]1CC(CNCc2cccc(Cl)c2)(COc2cnccn2)C[C@@H]1O (stereo partly specified)	Plasmodium berghei	%	-4.26
CC(=O)c1cn(CCC(=O)NCCCC(=O)O)c2ccccc12	Plasmodium berghei	%	-10.2
N#Cc1cc(S(N)(=O)=O)ccc1N1CCN(c2ccccc2)CC1	Plasmodium berghei	%	-33.7
CC(=O)N[C@@H]1CN(C(=O)c2cccc(C)c2)C[C@H]1O	Plasmodium berghei	%	0.19
COc1ccccc1C1(CNCc2ccc(C#N)cc2)CCOCC1	Plasmodium berghei	%	29.6
CN1C(=O)CCCC12CCCN(C(=O)c1cc(F)cc(F)c1)C2 (stereo unspecified)	Plasmodium berghei	%	33.4
COc1ccccc1C1(CNCc2cccc(O)c2)CCOCC1	Plasmodium berghei	%	51.3
O=C(c1ccc2[nH]nnc2c1)N1CCC(Nc2cccnn2)CC1	Plasmodium berghei	%	33.3
